# credit: patent US20240270821A1

Measured pEC50 of individual entries
biological target: hGLP-1R (Homo sapiens); assay: Functional cAMP activation in the presence of 0.1% casein (no HSA); assay type: cell-based; settings: in the presence of 0.1% casein (no HSA); geometric mean; read-out: Relative cAMP EC50, hGLP-1R;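 also: intracellular cAMP rise after 30 min at 37 °C read by HTRF, normalized between buffer only (0%) and maximal control ligand (100%), four-parameter variable-slope fit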
Sequence (P43220 24-463): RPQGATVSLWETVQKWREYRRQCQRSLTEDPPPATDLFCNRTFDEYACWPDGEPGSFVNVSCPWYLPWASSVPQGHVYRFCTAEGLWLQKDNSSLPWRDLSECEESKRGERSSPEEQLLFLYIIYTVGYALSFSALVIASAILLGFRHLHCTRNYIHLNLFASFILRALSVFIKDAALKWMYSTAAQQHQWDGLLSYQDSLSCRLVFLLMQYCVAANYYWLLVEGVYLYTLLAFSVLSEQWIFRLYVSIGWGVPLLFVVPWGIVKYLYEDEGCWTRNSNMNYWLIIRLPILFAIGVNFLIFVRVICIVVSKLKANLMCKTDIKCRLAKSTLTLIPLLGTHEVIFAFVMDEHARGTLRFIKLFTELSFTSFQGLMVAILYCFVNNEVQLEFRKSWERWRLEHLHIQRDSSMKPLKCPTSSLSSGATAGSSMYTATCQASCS
Starred links: 1 amine or outer side, 2 acyl side, 3 side chain; linkers in the order of their positions; H or OH if unused. Non-standard residues stand in square brackets, D forms with d. Groups on a side chain read outwards from the residue. No end group written: not given here. *: point of attachment. C20 diacid = O=C(O)CCCCCCCCCCCCCCCCCCC(=O)*; C18 diacid = O=C(O)CCCCCCCCCCCCCCCCC(=O)*; γGlu = O=C(O)[C@H](CCC(=O)[*:2])N[*:1]; NMeY = CN[C@@H](Cc1ccc(O)cc1)C(=O)O; αMe4Pal = C[C@](N)(Cc1ccncc1)C(=O)O; αMeY = C[C@](N)(Cc1ccc(O)cc1)C(=O)O; αMeF = C[C@](N)(Cc1ccccc1)C(=O)O; 4Pal = N[C@@H](Cc1ccncc1)C(=O)O; αMeL = CC(C)C[C@](C)(N)C(=O)O; Orn = NCCC[C@H](N)C(=O)O; AEEA = NCCOCCOCC(=O)O; Aib = CC(C)(N)C(=O)O
Value format note: pEC50 is -log10 of concentration (mol/L); just state the number.

# example entries with known answers
H-Y[Aib]QGTFTSD[4Pal]S[Orn][αMeL]LD[Orn]K([γGlu-γGlu-C18 diacid])AQ[αMe4Pal]EFIE[αMeY]LLAGGPSSGAPPPSGSEE-NH2 [Example 996] | 7.01
H-Y[Aib]QGTFTSDFS[Orn][αMeL]LDKK([AEEA-γGlu-C20 diacid])AQ[Aib]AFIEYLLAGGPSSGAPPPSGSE-NH2 [Example 84] | 8.79
H-Y[Aib]QGTFTSD[4Pal]SK[αMeL]LDKK([AEEA-γGlu-C18 diacid])AQ[Aib]AFIEYLIE[Aib]GPSSGAPPPSGSEEE-NH2 [Example 903] | 8.57
H-Y[Aib]QGTFTSDFSK[αMeL]LDKK([AEEA-γGlu-C18 diacid])AQ[Aib]AFIEYLIE[Aib]GESSGAPPPSGE-NH2 [Example 217] | 9.18
H-Y[Aib]QGTFTSDFSK[αMeL]LDKK([AEEA-γGlu-C18 diacid])AQ[Aib]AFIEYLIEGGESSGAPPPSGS-NH2 [Example 215] | 9.10
Y[Aib]QGTFTSD[4Pal]SQ[αMeL]LD[Orn]K([dE-γGlu-C18 diacid])AQ[αMe4Pal]QFIE[αMeY]LIAGGPSSGAPPPSGSEEE-NH2 [Example 1081] | 8.89
H-[NMeY][Aib]QGT[αMeF]TSDYSILLDKIAAK([AEEA-AEEA-γGlu-C20 diacid])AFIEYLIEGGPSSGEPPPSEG-NH2 [Example 299] | 9.02
Y[Aib]QGTFTSDFS[Orn][αMeL]LDKK([AEEA-γGlu-C18 diacid])AQ[Aib]AFIEYLLE[dA]GPSSGEPPPSGE-NH2 [Example 135] | 8.48

So what does the record say about pEC50 for H-Y[Aib]QGTFTSDFS[Orn][αMeL]LDKK([γGlu-AEEA-γGlu-C18 diacid])AQ[Aib]AFIEYLLE[Aib]GPSSGAPPPSGS-NH2 [Example 193] ?
8.28

# lookup: pEC50 of H-Y[Aib]QGTFTSD[4Pal]S[Orn][αMeL]LDKK([γGlu-γGlu-C18 diacid])AQ[αMe4Pal]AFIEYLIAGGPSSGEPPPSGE-NH2 [Example 979]
8.57

Record request: pEC50 value, item Y[Aib]QGTFTSDFS[Orn][αMeL]LDKK([AEEA-γGlu-C18 diacid])AQ[Aib]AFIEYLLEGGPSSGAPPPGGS-NH2 [Example 62]
8.57

I have this substance here, H-Y[Aib]QGTFTSD[4Pal]SQ[αMeL]LDKK([Glu-γGlu-C18 diacid])AQ[αMe4Pal]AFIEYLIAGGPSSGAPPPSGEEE-NH2 [Example 1089] , and I need its recorded pEC50.
8.53
